system: Mannheimia haemolytica; experiment: minimum inhibitory concentration (MIC); conditions: isolate (source animal id): 108
Measured minimum inhibitory concentration values are reported for all entries that follow.

What minimum inhibitory concentration appears in the records for this compound with Mannheimia haemolytica? CC1(C)S[C@@H]2[C@H](NC(=O)Cc3ccccc3)C(=O)N2[C@H]1C(=O)O [Penicillin]
≤ 0.12 µg/mL

What minimum inhibitory concentration appears in the records for this compound with Mannheimia haemolytica? CC1(C)S[C@@H]2[C@H](NC(=O)[C@H](N)c3ccccc3)C(=O)N2[C@H]1C(=O)O [Ampicillin]
≤ 0.25 µg/mL

What minimum inhibitory concentration appears in the records for this compound with Mannheimia haemolytica? NC[C@@H]1O[C@H](O[C@H]2[C@@H](O)[C@H](O[C@@H]3[C@@H](O)[C@H](N)C[C@H](N)[C@H]3O[C@H]3O[C@H](CN)[C@@H](O)[C@H](O)[C@H]3N)O[C@@H]2CO)[C@H](N)[C@@H](O)[C@@H]1O [Neomycin]
> 32 µg/mL

What minimum inhibitory concentration appears in the records for this compound with Mannheimia haemolytica? CO/N=C(\C(=O)N[C@@H]1C(=O)N2C(C(=O)O)=C(CSC(=O)c3ccco3)CS[C@H]12)c1csc(N)n1 [Ceftiofur]
≤ 0.25 µg/mL

src = the supplement of paper PMC8612539
